src = PubChem BioAssay (NCI)

Please provide measured growth inhibition for the entries that follow.
assay: NCI Yeast Anticancer Drug Screen. Data for the sgs1 mgt1 strain (AID 161);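 also: 0% = growth of cultures given vehicle only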; details: S. cerevisiae sgs1 mgt1 strain, at 50.0 µM, stronger effect = higher value
The panel holds about 79,000 compounds, 15% with a hit somewhere; the sample as a whole holds those more often. Where a SMILES comes first, the peptide text is derived from it. [ ]: non-standard residue; d: D form. The star is where a group is joined. ξ: configuration not given here. ξE = NC(CCC(=O)O)C(=O)O; Cbz = O=C(OCc1ccccc1)*
Answers are plain numbers, in %.

Example molecules with recorded growth inhibition:
{"molecule": "CNC(=S)N/N=C/c1nc2ccccc2c(=O)n1-c1ccc(Cl)cc1", "growth inhibition (%)": 36.6}
{"molecule": "O=C(O)CCC(NC(=O)OCc1ccccc1)C(=O)NCC(=O)O (stereo not drawn) (Cbz-[ξE]-Gly-OH)", "growth inhibition (%)": 0.35}

Proceeding to the next molecule to report its growth inhibition.
// query Indicate its recorded growth inhibition; the molecule in question is CCOC(=O)NC(CC)c1ccc2oc3ccccc3c2c1 (stereo not drawn)
// result 20.4
